tested on: pseudovirions harboring S protein from SARS-CoV-2 Alpha variant (B.1.1.7); assay: microbe, parasite or virus in culture; assay type: cell-based; settings: Severe acute respiratory syndrome coronavirus 2; read-out: EC50, inhibition of cellular entry of pseudovirions, Alpha variant
measured-endpoint: EC50

Consider COc1ccc(/C=C/C(=O)C(CC2CCC2)C(=O)/C=C/c2ccc(OC)c(OC)c2)cc1OC [Compound B] . Its measured EC50 is ~4.4 µM

---

test system: pseudovirions harboring S protein from SARS-CoV-2 Delta variant (B.1.617.2); assay: microbe, parasite or virus in culture; assay type: cell-based; details: Severe acute respiratory syndrome coronavirus 2; read-out: EC50, inhibition of cellular entry of pseudovirions, Delta variant
measured-endpoint: EC50

Consider COc1ccc(/C=C/C(=O)C(CC2CCC2)C(=O)/C=C/c2ccc(OC)c(OC)c2)cc1OC [Compound B] . Its measured EC50 is ~4.9 µM

Where these numbers come from: patent US20220233468A1
